test target: UniProt:P50613
Sequence (P50613 whole entry): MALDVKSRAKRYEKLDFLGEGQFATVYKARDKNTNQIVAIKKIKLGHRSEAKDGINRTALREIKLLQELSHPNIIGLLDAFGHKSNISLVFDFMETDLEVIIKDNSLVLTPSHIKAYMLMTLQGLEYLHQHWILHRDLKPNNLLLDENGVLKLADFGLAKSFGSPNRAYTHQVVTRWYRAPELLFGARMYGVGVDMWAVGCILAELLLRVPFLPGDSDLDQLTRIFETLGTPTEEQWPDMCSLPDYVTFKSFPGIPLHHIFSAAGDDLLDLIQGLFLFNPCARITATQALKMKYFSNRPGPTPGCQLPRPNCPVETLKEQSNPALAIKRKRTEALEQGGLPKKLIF
Assay type: cell-based
conditions used: CDK7 (P50613) protein abundance, degrader vs DMSO; down
measured property: logFC
No unit in the answer, please; the number alone is enough.

For orientation, consider the following solved cases.
compound | logFC
CNC(=O)c1ccccc1Nc1cc(Nc2ccc(N3CCN(CCOCCOCCNC(=O)CNc4cccc5c4C(=O)N(C4CCC(=O)NC4=O)C5=O)CC3)cc2OC)ncc1C(F)(F)F (stereo not shown) [MFH.5.103.1] | −0.5098
CC(C)S(=O)(=O)c1ccccc1Nc1nc(Nc2ccc(N3CCN(CCOCCOCCNC(=O)CNc4ccc5c(c4)C(=O)N(C4CCC(=O)NC4=O)C5=O)CC3)cc2)ncc1Cl (stereo not shown) [LT2.49] | −1.014
CC(C)S(=O)(=O)c1ccccc1Nc1nc(Nc2ccc(N3CCN(CCOCCOCCOCCNC(=O)CNc4ccc5c(c4)C(=O)N(C4CCC(=O)NC4=O)C5=O)CC3)cc2)ncc1Cl (stereo not shown) [SK.3.89] | −0.7959

Tell me its logFC given CC(C)S(=O)(=O)c1ccccc1Nc1nc(Nc2ccc(N3CCN(CCOCCNC(=O)CNc4ccc5c(c4)C(=O)N(C4CCC(=O)NC4=O)C5=O)CC3)cc2)ncc1Cl (stereo not shown) [SK.3.93] as the entry.
−0.8057

###

Quick reference: logFC AURKA (O14965) of the listed items.
test target: protein kinases (human kinome) (Homo sapiens, UniProt O14965)
Sequence (O14965 1-403): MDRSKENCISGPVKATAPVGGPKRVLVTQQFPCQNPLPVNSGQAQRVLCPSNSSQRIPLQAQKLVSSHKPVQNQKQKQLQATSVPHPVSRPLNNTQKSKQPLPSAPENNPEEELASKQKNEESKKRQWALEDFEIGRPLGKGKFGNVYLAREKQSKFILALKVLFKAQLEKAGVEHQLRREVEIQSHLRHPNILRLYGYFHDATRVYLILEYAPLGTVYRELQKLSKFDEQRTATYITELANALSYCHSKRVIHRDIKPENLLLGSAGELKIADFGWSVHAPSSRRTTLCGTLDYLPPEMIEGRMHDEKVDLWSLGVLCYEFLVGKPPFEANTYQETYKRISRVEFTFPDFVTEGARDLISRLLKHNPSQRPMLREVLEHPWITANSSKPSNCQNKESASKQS
Assay type: cell-based
conditions used: experiment wp016
No unit in the answer, please; the number alone is enough.

Tell me its logFC AURKA (O14965) given CC(C)S(=O)(=O)c1ccccc1Nc1nc(Nc2ccc(N3CCN(CCOCCOCCOCCNC(=O)CNc4cccc5c4C(=O)N(C4CCC(=O)NC4=O)C5=O)CC3)cc2)ncc1Cl (stereo not drawn) as the entry.
−1.381

Tell me its logFC AURKA (O14965) given CC(C)S(=O)(=O)c1ccccc1Nc1nc(Nc2ccc(N3CCN(CCOCCNC(=O)CNc4ccc5c(c4)C(=O)N(C4CCC(=O)NC4=O)C5=O)CC3)cc2)ncc1Cl (stereo not drawn) as the entry.
−1.823

Tell me its logFC AURKA (O14965) given CC(C)S(=O)(=O)c1ccccc1Nc1nc(Nc2ccc(N3CCN(CCOCCOCCNC(=O)CNc4ccc5c(c4)C(=O)N(C4CCC(=O)NC4=O)C5=O)CC3)cc2)ncc1Cl (stereo not drawn) as the entry.
−1.853

Tell me its logFC AURKA (O14965) given CC(C)S(=O)(=O)c1ccccc1Nc1nc(Nc2ccc(N3CCN(CCOCCOCCNC(=O)CNc4cccc5c4C(=O)N(C4CCC(=O)NC4=O)C5=O)CC3)cc2)ncc1Cl (stereo not drawn) as the entry.
−1.758

Tell me its logFC AURKA (O14965) given CC(C)S(=O)(=O)c1ccccc1Nc1nc(Nc2ccc(N3CCN(CCOCCOCCOCCNC(=O)CNc4ccc5c(c4)C(=O)N(C4CCC(=O)NC4=O)C5=O)CC3)cc2)ncc1Cl (stereo not drawn) as the entry.
−1.672

Tell me its logFC AURKA (O14965) given CC(C)S(=O)(=O)c1ccccc1Nc1nc(Nc2ccc(N3CCN(CCOCCNC(=O)CNc4cccc5c4C(=O)N(C4CCC(=O)NC4=O)C5=O)CC3)cc2)ncc1Cl (stereo not drawn) as the entry.
−1.908

###

test target: UniProtKB Q00535
Sequence (Q00535 whole entry): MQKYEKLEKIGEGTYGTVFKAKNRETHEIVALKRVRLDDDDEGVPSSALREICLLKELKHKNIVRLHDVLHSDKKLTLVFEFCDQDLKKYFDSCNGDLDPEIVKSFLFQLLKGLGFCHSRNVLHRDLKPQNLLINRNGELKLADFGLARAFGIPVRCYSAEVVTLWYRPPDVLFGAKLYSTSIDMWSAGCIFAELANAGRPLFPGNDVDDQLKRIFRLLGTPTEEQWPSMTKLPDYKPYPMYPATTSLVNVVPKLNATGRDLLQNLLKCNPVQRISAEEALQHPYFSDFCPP
Assay type: cell-based
conditions used: experiment wp146; direction of change down
measured property: logFC CDK5 (Q00535)
No unit in the answer, please; the number alone is enough.

For orientation, consider the following solved cases.
compound | obs value
Cc1cc(Nc2ncc(Br)c(Nc3cccc(F)c3C(N)=O)n2)ccc1S(=O)(=O)NCCOCCOCCOCCOCCNc1cccc2c1C(=O)N(C1CCC(=O)NC1=O)C2=O (stereo not shown) | −3.161
NC(=O)c1c(F)cccc1Nc1nc(Nc2ccc(S(=O)(=O)NCCOCCOCCOCCOCCNc3cccc4c3C(=O)N(C3CCC(=O)NC3=O)C4=O)cc2)ncc1Br (stereo not shown) | −3.29
Cc1cc(S(=O)(=O)NCCOCCOCCOCCOCCNc2cccc3c2C(=O)N(C2CCC(=O)NC2=O)C3=O)ccc1Nc1ncc(Br)c(Nc2cccc(F)c2C(N)=O)n1 (stereo not shown) | −2.878

--- query ---
Tell me its logFC CDK5 (Q00535) given NC(=O)c1c(F)cccc1Nc1nc(NC2CCN(S(=O)(=O)CCNC(=O)CCCCCCCCOc3cccc4c3C(=O)N(C3CCC(=O)NC3=O)C4=O)CC2)ncc1Br (stereo not shown) as the entry.
−2.901

###

test target: protein kinases (human kinome) (Homo sapiens)
Format: cell-based
conditions used: experiment wp016
measured property: logFC CDK2 (P24941-1)

compound | test target | logFC CDK2 (P24941-1)
CC(C)S(=O)(=O)c1ccccc1Nc1nc(Nc2ccc(N3CCN(CCOCCNC(=O)CNc4ccc5c(c4)C(=O)N(C4CCC(=O)NC4=O)C5=O)CC3)cc2)ncc1Cl (stereo not drawn) | protein kinases (human kinome) (Homo sapiens) | −0.5433

Tell me its logFC CDK2 (P24941-1) given CC(C)S(=O)(=O)c1ccccc1Nc1nc(Nc2ccc(N3CCN(CCOCCOCCNC(=O)CNc4cccc5c4C(=O)N(C4CCC(=O)NC4=O)C5=O)CC3)cc2)ncc1Cl (stereo not drawn) as the entry.
−0.5971

Tell me its logFC CDK2 (P24941-1) given CC(C)S(=O)(=O)c1ccccc1Nc1nc(Nc2ccc(N3CCN(CCOCCOCCOCCNC(=O)CNc4cccc5c4C(=O)N(C4CCC(=O)NC4=O)C5=O)CC3)cc2)ncc1Cl (stereo not drawn) as the entry.
−0.3797

###

Tested on: protein kinases (human kinome)
Type: cell-based
conditions used: CDK9 (P50750-2) protein abundance, degrader vs DMSO; down
measured property: logFC

For orientation, consider the following solved cases.
compound | logFC
Cc1ncsc1-c1ccc([C@H](C)NC(=O)[C@@H]2C[C@@H](O)CN2C(=O)[C@@H](NC(=O)CCOCCOCCOCCN2CCC(C(=O)Nc3ncc(SCc4ncc(C(C)(C)C)o4)s3)CC2)C(C)(C)C)cc1 [ZZ.01.31B] | −0.837
CC(C)S(=O)(=O)c1ccccc1Nc1nc(Nc2ccc(N3CCN(CCOCCOCCC(=O)NCCNc4cccc5c4CN(C4CCC(=O)NC4=O)C5=O)CC3)cc2)ncc1Cl (stereo not shown) [TL13.97] | −1.37
CC(C)S(=O)(=O)c1ccccc1Nc1nc(Nc2ccc(N3CCN(CCOCCOCCOCCNC(=O)CNc4ccc5c(c4)C(=O)N(C4CCC(=O)NC4=O)C5=O)CC3)cc2)ncc1Cl (stereo not shown) [SK.3.89] | −0.4777

--- query ---
Tell me its logFC given O=C1CCC(N2C(=O)c3cccc(NCCCCCCCCN4CCC(NC(=O)c5[nH]ncc5NC(=O)c5c(Cl)cccc5Cl)CC4)c3C2=O)C(=O)N1 (stereo not shown) [MFH.5.126.1] as the entry.
−0.7008

###

test target: protein kinases (human kinome)
Type: cell-based
conditions used: kinases significantly downregulated vs DMSO (fold change cutoff −1.25, P-value<0.01); ≤8 h, 0.1-5 μM degrader; 7 cell lines

compound | Kinase hits
Cc1c(NC(=O)c2ccc(C(C)(C)C)cc2)cccc1-c1cn(C)c(=O)c(Nc2ccc(C(=O)N3CCN(CCCCCCNC(=O)COc4cccc5c4C(=O)N(C4CCC(=O)NC4=O)C5=O)CC3)cc2)n1 (stereo not shown) | BTK

###

test target: protein kinases (human kinome) (Homo sapiens)
Type: cell-based
conditions used: ABL2 (P42684) protein abundance, degrader vs DMSO; down
measured property: logFC
No unit in the answer, please; the number alone is enough.

compound | test target | logFC
Cc1ccc(NC(=O)c2cccc(C(F)(F)F)c2)cc1N1Cc2cnc(Nc3ccc(N4CCN(CCCOc5cccc6c5C(=O)N(C5CCC(=O)NC5=O)C6=O)CC4)nc3)nc2N(C)C1=O (stereo not drawn) [DB0662] | protein kinases (human kinome) (Homo sapiens) | −1.207

Report logFC from protein kinases (human kinome) (Homo sapiens) testing of Cc1ncsc1-c1ccc([C@H](C)NC(=O)[C@@H]2C[C@@H](O)CN2C(=O)[C@@H](NC(=O)CCCCCCc2ccc(Nc3ncc4c(n3)-c3ccccc3NC(=O)N4)cc2)C(C)(C)C)cc1 [JWG.148]
−0.516

Report logFC from protein kinases (human kinome) (Homo sapiens) testing of Cc1ccc(NC(=O)c2cccc(C(F)(F)F)c2)cc1N1Cc2cnc(Nc3ccc(N4CCN(CCCCCCOc5cccc6c5C(=O)N(C5CCC(=O)NC5=O)C6=O)CC4)nc3)nc2N(C)C1=O (stereo not drawn) [DB0663]
−0.6022
